Please respond with reported KD for every item in the list.
Test system: Spn class-II preQ1 riboswitch aptamer, A11Ap variant (RNA, riboswitch, 2-aminopurine at 11 (replacing A11)) CUUGGUGCUUAGCUUCUUUCACCAAGCAUAUUACACGCGGAUAACCGCCAAAGGA
Assay: 2-aminopurine fluorescence titration
Conditions: 100 mM KCl, 2 mM MgCl2; 50 mM MOPS, pH 7.5, 293 K; 0.5 µM RNA; apparent
# output: number + unit

Some compounds with recorded KD:
{"smiles": "NCc1c[nH]c2nc(N)[nH]c(=O)c12", "KD": "430 nM"}
{"smiles": "[N-]=[N+]=NCCCNCc1c[nH]c2nc(N)[nH]c(=O)c12", "KD": "254 nM"}

Turning now to a further compound:
Input: Need KD, item COCCOCCOCCNCc1c[nH]c2nc(N)[nH]c(=O)c12
Output: 4580 nM

---

Please respond with reported KD for every item in the list.
System: Tte class-I preQ1 riboswitch aptamer, U22Ap variant (RNA, riboswitch, 2-aminopurine at 22 (replacing U22)) CUGGGUCGCAGUAACCCCAGUUAACAAAACAAG
Assay: 2-aminopurine fluorescence titration
Details: 100 mM KCl, 2 mM MgCl2; 50 mM MOPS, pH 7.5, 293 K; 0.5 µM RNA; apparent
One number for each entry, in nM.

Some molecules with recorded KD:
{"smiles": "NCc1c[nH]c2nc(N)[nH]c(=O)c12", "unit": "nM", "valueReported": 51}
{"smiles": "[N-]=[N+]=NCCCCNCc1c[nH]c2nc(N)[nH]c(=O)c12", "unit": "nM", "valueReported": 88}
{"smiles": "NCCCCNCc1c[nH]c2nc(N)[nH]c(=O)c12", "unit": "nM", "valueReported": 41}
{"smiles": "[N-]=[N+]=NCCCNCc1c[nH]c2nc(N)[nH]c(=O)c12", "unit": "nM", "valueReported": 30}

Count: 2. Required value per item: KD.
1. COCCOCCOCCNCc1c[nH]c2nc(N)[nH]c(=O)c12
2. NCCCc1c[nH]c2nc(N)[nH]c(=O)c12

Output:
1. 922
2. 71

Count: 3. Required value per item: KD.
1. [N-]=[N+]=NCCOCCNCc1c[nH]c2nc(N)[nH]c(=O)c12
2. NCCCNCc1c[nH]c2nc(N)[nH]c(=O)c12
3. Nc1nc2[nH]cc(CNCCCCCNCc3c[nH]c4nc(N)[nH]c(=O)c34)c2c(=O)[nH]1

Output:
[167, 32, 590]

---

Tested on: Spn class-II preQ1 riboswitch aptamer, A11Ap variant (RNA, riboswitch, 2-aminopurine at 11 (replacing A11)) CUUGGUGCUUAGCUUCUUUCACCAAGCAUAUUACACGCGGAUAACCGCCAAAGGA
Assay: 2-aminopurine fluorescence titration
Conditions: 100 mM KCl, 2 mM MgCl2; 50 mM MOPS, pH 7.5, 293 K; 0.5 µM RNA; apparent
Lab note: compare KD with 200 nM, writing class 1 if less and class 0 if equal or more.

These recorded examples may help you get a feel for the data.
{"smiles": "NCCCNCc1c[nH]c2nc(N)[nH]c(=O)c12", "classification": "class 1"}
{"smiles": "Nc1nc2[nH]cc(CNCCCCCNCc3c[nH]c4nc(N)[nH]c(=O)c34)c2c(=O)[nH]1", "classification": "class 0"}
{"smiles": "NCCCCNCc1c[nH]c2nc(N)[nH]c(=O)c12", "classification": "class 1"}
{"smiles": "NCCCc1c[nH]c2nc(N)[nH]c(=O)c12", "classification": "class 0"}

Query compound follows.
Input: Strictly below 200 nM in KD? [N-]=[N+]=NCCCCNCc1c[nH]c2nc(N)[nH]c(=O)c12
Output: class 0
